Cited source: the supplement of paper PMC9112550

System: Escherichia coli TOP10;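 also: peptides expressed intracellularly from a pBAD plasmid library in pooled LB shake-flask culture, induced with 0.3% L-arabinose, DNA abundance read by NGS, three biological replicates, DESeq2 with apeglm shrinkage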
Assay: shrunken log2 fold change of peptide-encoding DNA abundance (4.5 h post-induction vs induction); higher = less antimicrobial activity (less host growth inhibition)
Conditions: time post-induction: 4.5 h; library: site-saturation at positions 5, 18, 19, 20
Answer each item with its documented shrunken log2 fold change.
One number for each entry.

RRIRLRPPRLPRPRPRPVPTPRP | 0.0616
RRIRVRPPRLPRPRPRPVFKPRP | -0.196
RRIRLRPPRLPRPRPRPDSQPRP | -0.117
RRIRKRPPRLPRPRPRPEHYPRP | 0.0532

Your task in this section: give shrunken log2 fold change for each listed record.
1. RRIRARPPRLPRPRPRPPGQPRP
2. RRIRKRPPRLPRPRPRPYRRPRP
3. RRIRNRPPRLPRPRPRPYYLPRP

1: 0.0736; 2: -0.105; 3: -0.673

Your task in this section: give shrunken log2 fold change for each listed record.
1. RRIRIRPPRLPRPRPRPKGIPRP
2. RRIRSRPPRLPRPRPRPFPMPRP
3. RRIRLRPPRLPRPRPRPTDSPRP
4. RRIRLRPPRLPRPRPRPGCCPRP
5. RRIRPRPPRLPRPRPRPFAMPRP
6. RRIRQRPPRLPRPRPRPQCGPRP

-0.13
-0.264
2.57
0.387
0.0938
-0.133

Your task in this section: give shrunken log2 fold change for each listed record.
1. RRIRCRPPRLPRPRPRPFCMPRP
2. RRIRSRPPRLPRPRPRPIDNPRP

1. 0.174
2. -0.163
